# testedSystem: pooled human IgG (human IgG1,2,3 and 4)
measurementKind: Enzyme Activity Endpoint Assay: IgG
Answer with the figure and its unit, nothing else.

The recorded Enzyme Activity Endpoint Assay: IgG for entry PRT-331 (protein) MTITSVWTKGVTPPTPEDFRENNEDVLHAPYVANQGWYDITKTFDGKDNLLCGAATAGNMLHWWFDQNKEEIERYLKKHPEKQKIIFNNQELFDVKAAIDTKDSQTNSKLFDYFRDKAFPGLSARQLGVFPDLVLDMFINGYYLNLGKTQSTDVNRPYQDKDKRGGIFDAVFTRGVQTTLLTARHDLKNKGLNEISDLIKQELTEGKALALSHTYANVRINHVINLWGADFDAEGNLIAIYVTDSDANASIGMKKYFVGRNANGKVAISAKKIEGDNIGAQVLGLFTLSTGQDQWQKLS equals 0 ng/µL

Enzyme Activity Endpoint Assay: IgG recorded for this protein, PRT-191 (protein) MANQEIRYSEVTPYHVTSVWTKGVTPPANFTQGEDVFHAPYVANQGWYDITKTFNGKDDLLCGAATAGNMLHWWFDQNKDQIKRYLEEHPEKQKINFNGEQMFDVKEAIDTKNHQLDSKLFEYFKEKAFPYLSTKHLGVFPDHVIDMFINGYRLSLTNHGPTPVKEGSKDPRGGIFDAVFTRGDQSKLLTSRHDFKEKNLKEISDLIKKELTEGKALGLSHTYANVRHSINHVINLWGADFDSNGNLKAIYVTDSDSNASIGMKKYFVGVNSAGKVAISAKEIKEDNIGAQVLGLFTLSTGQDSWNQTN , is 161 ng/µL

protein PRT-293 (protein) MVTSVWTKGVTPPADFTQGEDVFHAPYVANQGWYDITKTFNGKDDLLCGAATAGNMLHWWFDQNKEYIEAYLKKHPEKQKIMFGDQELLDVRKAINTKGSQKNSELFNYFRDKAFPNLSARRLGVMPDLVLDMFINGYYLNVTKTQTTDVNRTYQEKDKRGGIFDAVFTRGDQSKLLTSRHDFKEKGLKEISDLIKQELTEGKALGLSHTYANVRLNHVINLWGADFDSDGNLKAIYVTDSDSNASIGMKKYGVGVNSAGKVAISAKEIKEDNIGAQVLGLFTLSTGQDIWNQTN , Enzyme Activity Endpoint Assay: IgG observed: 1260 ng/µL

Briefly, Enzyme Activity Endpoint Assay: IgG measured for PRT-372 (protein) MSQTEDSESLQRLRDIEDFQAEKKKQNVVYTKWLDGVDVKDHDFRKIVDGNSAYYATPLLNGRGFYDINKDFNRDNDKCAAAVAANMFHYWLDRNRDNVDRFLRQNPEKHGIIELPDGQLKLSDFLNTYESDDGYRDKSKLFDFISENFNGPVWTDKLLDNYINGYAYNSKYGRTIEDSTKNTSKINFFKEVFNEKILTNNHSIRNQNEFSVLLIEALYTGKAIGLSYGPAGLRHGLGHIISVWGADLDADGNVVAIYVTDSDDKKLTIGDERVGLKRYKISTDDEGRLRLTAYEETHNTGGQIRGLWTLDTGKQAWADYFDKTEQTGTDQAEQ : 122 ng/µL
